Data credit: the supplement of paper PMC10567573

B1: AUP1 (parent)
chain: FCASTRLPPTPLLLFPEEEATNGR

- Variants of: B1
- RUN DESCRIPTION: protein stability index of a GFP-peptide fusion (GPS, HEK-293T) (PSI 1-6); higher = more stable;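 also: lentivirally expressed fusions sorted by FACS into six bins by GFP to DsRed ratio, PSI derived from sequencing read proportions per bin multiplied by bin number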
- CONDITIONS: c terminus: a fixed tail appended
Property: protein stability index; scope: individual variants
Reply: number alone, nothing else.

    var                  readout  reported_value
0  G23F  protein stability index               2

Asked: Respond only with protein stability index recorded for `A20G`
Given back: 2.79

Asked: Read the entry `R24I` and write its reported protein stability index.
Given back: 2.46

Asked: State its protein stability index for this variant: `P16A`
Given back: 2.68

Asked: # return recorded protein stability index for entry `A3Y`
Given back: 1.7

Asked: Provide protein stability index value for the following variant: `S4I`
Given back: 2.49

Asked: Check the records and state protein stability index for `P16H`
Given back: 2.61
